tested.target: human TREM2 extracellular domain (ECD) (Homo sapiens, UniProt Q9NZC2)
Sequence (Q9NZC2 19-174): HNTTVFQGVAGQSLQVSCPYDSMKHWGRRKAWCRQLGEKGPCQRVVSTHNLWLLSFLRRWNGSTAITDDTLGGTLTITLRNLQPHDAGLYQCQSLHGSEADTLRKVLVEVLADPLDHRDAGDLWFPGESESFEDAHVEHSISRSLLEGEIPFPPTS
readout.name: binding result

>>> result("R18-11-02 (antibody, V domains shown) VH: AVQLVESGGGLVQPKESLKISCAASGFTFSNAAMYWVRQAPGKGLEWVARIRTKPNNYATYYADSMKGRFTISRDDSKSMVYLQMGNLKTEDTAMYYCTAELITTAFDYWGQGVMVTVSS VL: DIVMTQSPSSLAVSAGETVTIDCKSSQSLLYSGNQKTYLAWYQQKPGQSPKLLIYWASTRQSGVPDRFIGSGSGTDFTLTISSVQAEDLAIYYCQQYYDTPLTFGSGTKLEIK")
"binds"
>>> result("R18-11-03 (antibody, V domains shown) VH: AVQLVESGGGLVRPKESLKISCAASGFTFSNAAMYWVRQAPGKGLEWVARIRSKPNNYATHYADSVKGRFIISRDDSKGMVYLQMDNLKTEDTAKYYCTAAGGGYGFDDWGQGVMVTVSS VL: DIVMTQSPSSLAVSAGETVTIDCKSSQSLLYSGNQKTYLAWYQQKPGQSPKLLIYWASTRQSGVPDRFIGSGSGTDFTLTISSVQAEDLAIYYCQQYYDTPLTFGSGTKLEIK")
"binds"
>>> result("R18-12-20 (antibody, V domains shown) VH: AVQLVESGGGLVQPKESLKISCAASGFTLSTVAMYWVRQAPGKGLEWVARIRTKPNNYAIYYADSVKGRFTISRDDSKSMVYLQMDNLKTEDTAMYYCTAPGIIRAPFAYWGQGTLVTVSS VL: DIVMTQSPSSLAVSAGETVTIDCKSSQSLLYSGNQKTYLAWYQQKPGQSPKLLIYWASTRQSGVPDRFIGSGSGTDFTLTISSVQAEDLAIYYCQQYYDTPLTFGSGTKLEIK")
"binds"

Provenance of the data: paper PMC11437124
